Target: T1, human DLL3 antigen (human, UniProt Q9NYJ7 27-492, limits assumed)
T1 construct: also called immobilized human DLL3; recombinant human DLL3
T1 sequence (looked up): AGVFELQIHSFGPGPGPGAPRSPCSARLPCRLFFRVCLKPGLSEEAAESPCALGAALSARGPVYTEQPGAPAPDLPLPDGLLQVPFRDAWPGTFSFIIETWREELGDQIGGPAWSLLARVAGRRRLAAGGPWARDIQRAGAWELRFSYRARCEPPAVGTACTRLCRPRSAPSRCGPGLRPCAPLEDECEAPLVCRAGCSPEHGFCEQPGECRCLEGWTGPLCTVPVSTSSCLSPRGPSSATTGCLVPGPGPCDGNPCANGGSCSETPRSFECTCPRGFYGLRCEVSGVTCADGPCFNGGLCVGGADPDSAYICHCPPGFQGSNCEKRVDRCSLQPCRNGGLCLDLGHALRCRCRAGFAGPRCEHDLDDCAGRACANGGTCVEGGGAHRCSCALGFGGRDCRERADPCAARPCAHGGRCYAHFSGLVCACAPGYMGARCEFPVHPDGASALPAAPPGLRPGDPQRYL
Test: ELISA or flow cytometry screen
OUTCOME_MEASURE: binding result

[
  {
    "BINDER": "SC16.144 (antibody, V domains shown, murine mAb) VH: QIQLVQSGPELKKPGETVKISCKASGYTFTNYGMNWVKQAPGKGLKWVGWINTYTGEPTYADDFKGRFAFSLETSASTAYLQIDNLKNEDTATYFCARVGDYVGFDYWGQGTTLTVSS VL: SIVMTQTPKFLLVSAGDRVTITCKASQSVSNDVGWYQQKPGQSPKLLIYYASNRYNGVPDRFTGSGYGTDFTFTISTVQAEDLAVYFCQQDYSSPWTFGGGTKLEIK",
    "REPORTED_MEASUREMENT": "binds"
  }
]
